Numbered stars: 1 amine (or outer) side, 2 acyl side, 3 side chain; on linkers, the order of the positions; unused ones are H or OH. Bridge positions count the residues as written; N and C are the ends. Square brackets hold non-standard residues; d marks the D form. Peptide text beside a SMILES is read from it. Phe(4-NO2) = N[C@@H](Cc1ccc([N+](=O)[O-])cc1)C(=O)O; Phe(4-CH2NHiPr) = CC(C)NCc1ccc(C[C@H](N)C(=O)O)cc1; X1 = CC(C)CNCc1ccc(C[C@H](N[*:1])C(=O)[*:2])cc1; Phe(4-CH2NH2) = NCc1ccc(C[C@H](N)C(=O)O)cc1; d2Nal = N[C@H](Cc1ccc2ccccc2c1)C(=O)O
The following molecules each carry a recorded IC50 for UniProtKB P35346.
Sequence (P35346 whole entry): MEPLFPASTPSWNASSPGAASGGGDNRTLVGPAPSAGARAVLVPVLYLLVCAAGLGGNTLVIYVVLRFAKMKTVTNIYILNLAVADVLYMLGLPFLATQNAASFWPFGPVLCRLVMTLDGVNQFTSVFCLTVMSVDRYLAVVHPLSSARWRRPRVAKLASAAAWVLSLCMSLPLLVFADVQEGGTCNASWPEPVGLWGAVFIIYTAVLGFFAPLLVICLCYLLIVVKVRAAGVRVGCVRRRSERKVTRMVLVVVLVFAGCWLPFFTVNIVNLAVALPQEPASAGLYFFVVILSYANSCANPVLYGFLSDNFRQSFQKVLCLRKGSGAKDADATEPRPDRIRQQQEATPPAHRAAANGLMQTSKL

[
  {
    "molecule": "CC(C)CNCc1ccc(C[C@@H]2NC(=O)[C@@H](Cc3c[nH]c4ccccc34)NC(=O)[C@H](Cc3ccccc3)NC(=O)[C@H](Cc3ccccc3)NC(=O)[C@H](CCCCN)NC(=O)[C@@H](N)CSSC[C@@H](C(=O)O)NC(=O)[C@H](CO)NC(=O)[C@H]([C@@H](C)O)NC(=O)[C@H](Cc3ccccc3)NC(=O)[C@H]([C@@H](C)O)NC2=O)cc1 (H-CKFF[dW][X1]TFTSC-OH; disulfide 1-11)",
    "result": "> 1000 nM"
  },
  {
    "molecule": "C[C@@H](O)[C@@H]1NC(=O)[C@H](Cc2ccccc2)NC(=O)[C@H]([C@@H](C)O)NC(=O)[C@H](Cc2ccc(CN)cc2)NC(=O)[C@@H](Cc2c[nH]c3ccccc23)NC(=O)[C@H](Cc2ccccc2)NC(=O)[C@H](Cc2ccccc2)NC(=O)[C@H](CCCCN)NC(=O)[C@@H](N)CSSC[C@@H](C(=O)O)NC(=O)[C@H](CO)NC1=O (H-CKFF[dW][Phe(4-CH2NH2)]TFTSC-OH; disulfide 1-11)",
    "result": "190 nM"
  },
  {
    "molecule": "CC(C)NCc1ccc(C[C@@H]2NC(=O)[C@@H](Cc3ccc4ccccc4c3)NC(=O)[C@H](Cc3ccccc3)NC(=O)[C@H](Cc3ccccc3)NC(=O)[C@H](CCCCN)NC(=O)[C@H](NC(=O)CCc3ccc(O)cc3)CSSC[C@@H](C(=O)O)NC(=O)[C@H](CO)NC(=O)[C@H]([C@@H](C)O)NC(=O)[C@H](Cc3ccccc3)NC(=O)[C@@H]([C@@H](C)O)NC2=O)cc1 (stereo in doubt; 30)",
    "result": "> 1000 nM"
  },
  {
    "molecule": "CC(C)NCc1ccc(C[C@@H]2NC(=O)[C@@H](Cc3c[nH]c4ccccc34)NC(=O)[C@H](Cc3ccccc3)NC(=O)[C@H](Cc3ccccc3)NC(=O)[C@H](CCCCN)NC(=O)[C@@H](N)CSSC[C@@H](C(=O)O)NC(=O)[C@@H](CO)NC(=O)[C@H]([C@@H](C)O)NC(=O)[C@H](Cc3ccccc3)NC(=O)[C@H]([C@@H](C)O)NC2=O)cc1 (H-CKFF[dW][Phe(4-CH2NHiPr)]TFT[dS]C-OH; disulfide 1-11)",
    "result": "> 1000 nM"
  },
  {
    "molecule": "C[C@@H](O)[C@@H]1NC(=O)[C@H](Cc2ccccc2)NC(=O)[C@H]([C@@H](C)O)NC(=O)[C@H](Cc2ccc(Nc3nnc(N)[nH]3)cc2)NC(=O)[C@@H](Cc2c[nH]c3ccccc23)NC(=O)[C@H](Cc2ccccc2)NC(=O)[C@H](Cc2ccccc2)NC(=O)[C@H](CCCCN)NC(=O)[C@@H](N)CSSC[C@@H](C(=O)O)NC(=O)[C@H](CO)NC1=O",
    "result": "> 10000 nM"
  },
  {
    "molecule": "CC(C)NCc1ccc(C[C@@H]2NC(=O)[C@@H](Cc3c[nH]c4ccccc34)NC(=O)[C@H](Cc3ccc(O)cc3)NC(=O)[C@H](Cc3ccccc3)NC(=O)[C@H](CCCCN)NC(=O)[C@@H](N)CSSC[C@@H](C(=O)O)NC(=O)[C@H](CO)NC(=O)[C@H]([C@@H](C)O)NC(=O)[C@H](Cc3ccccc3)NC(=O)[C@H]([C@@H](C)O)NC2=O)cc1",
    "result": "> 1000 nM"
  }
]

Parameters: items (list). Returns: IC50 for each item.
1. CC(C)NCc1ccc(C[C@@H]2NC(=O)[C@@H](Cc3c[nH]c4ccccc34)NC(=O)[C@H](Cc3ccccc3)NC(=O)[C@H](Cc3ccccc3)NC(=O)[C@H](CC(N)=O)NC(=O)[C@H](CCCCN)NC(=O)[C@@H](N)CSSC[C@@H](C(=O)O)NC(=O)[C@H](CO)NC(=O)[C@H]([C@@H](C)O)NC(=O)[C@H](Cc3ccccc3)NC(=O)[C@H]([C@@H](C)O)NC2=O)cc1 (H-CKNFF[dW][Phe(4-CH2NHiPr)]TFTSC-OH; disulfide 1-12)
2. CC(C)NCc1ccc(C[C@@H]2NC(=O)[C@@H](Cc3ccc4ccccc4c3)NC(=O)[C@H](Cc3ccc([N+](=O)[O-])cc3)NC(=O)[C@H](Cc3ccccc3)NC(=O)[C@H](CCCCN)NC(=O)[C@@H](N)CSSC[C@@H](C(=O)O)NC(=O)[C@H](CO)NC(=O)[C@H]([C@@H](C)O)NC(=O)[C@H](Cc3ccccc3)NC(=O)[C@H]([C@@H](C)O)NC2=O)cc1 (H-CKF[Phe(4-NO2)][d2Nal][Phe(4-CH2NHiPr)]TFTSC-OH; disulfide 1-11)

1: > 10000 nM; 2: > 1000 nM

Batch of 2 molecules: report IC50 for each.
1. CC(C)NCc1ccc(C[C@@H]2NC(=O)[C@@H](Cc3ccc4ccccc4c3)NC(=O)[C@H](Cc3ccccc3)NC(=O)[C@H](Cc3ccccc3)NC(=O)[C@H](CCCCN)NC(=O)[C@@H](N)CSSC[C@@H](C(=O)O)NC(=O)[C@H](CO)NC(=O)[C@H]([C@@H](C)O)NC(=O)[C@H](Cc3ccccc3)NC(=O)[C@H]([C@@H](C)O)NC2=O)cc1 (H-CKFF[d2Nal][Phe(4-CH2NHiPr)]TFTSC-OH; disulfide 1-11)
2. C[C@H](N)C(=O)NCC(=O)N[C@H]1CSSC[C@@H](C(=O)O)NC(=O)[C@H](CO)NC(=O)[C@H]([C@@H](C)O)NC(=O)[C@H](Cc2ccccc2)NC(=O)[C@H]([C@@H](C)O)NC(=O)[C@H](CCCCN)NC(=O)[C@@H](Cc2c[nH]c3ccccc23)NC(=O)[C@H](Cc2ccccc2)NC(=O)[C@H](Cc2ccccc2)NC(=O)[C@H](CCCCN)NC1=O (H-AGCKFF[dW]KTFTSC-OH; disulfide 3-13)

1: > 10000 nM; 2: 5 nM
